Entry source: patent US9944618B2

Assay: pKa of basic centres (Table 1)
Assay type: physicochemical
Conditions: first base, e.g., an aliphatic primary, secondary, or tertiary amine; read-out: pKa (Base 1)
RECORDED ENDPOINT: pKa

COMPOUND | pKa
CCc1ccccc1[C@@H](O)[C@H](CNC)c1ccc(Cl)c(Cl)c1 [Compound 158] | 9.4
CNC[C@H](c1ccc2ccccc2c1)[C@H](OCC(=O)NCC(F)(F)F)c1ccccc1 [Compound 68] | 9.6
CNCC(c1ccc2ccccc2c1)[C@@H](O)c1ccc(Cl)nc1 (some centres unmarked) [Compound 169] | 9.6
CNC[C@H](c1ccc(Cl)c(Cl)c1)[C@H](O)c1cccc([N+](=O)[O-])c1 [Compound 102] | 9.3
CNC[C@H](c1ccc(Cl)c(Cl)c1)[C@@H](O)c1cccc(SC)c1 [Compound 163] | 9.4
CNCC(Cc1ccc(C)s1)c1ccc2ccccc2c1 (centres unmarked) [Compound 139] | 10
CNC[C@H](c1ccc(Cl)c(Cl)c1)[C@H](O)c1ccccc1I [Compound 164] | 9.4
CNC[C@@H](c1ccc(Cl)c(Cl)c1)[C@@H](O)c1cccc(OC)n1 [Compound 157] | 9.2
CNC[C@H](c1ccc(Cl)c(Cl)c1)[C@@H](O)c1cccnc1OC [Compound 104] | 9.2
CNC[C@H](c1ccc2ccccc2c1)[C@H](O)c1cccs1 [Compound 47] | 9.7
CNC[C@H](c1ccc(Cl)c(Cl)c1)[C@@H](O)c1ccccc1I [Compound 152] | 9.4
CNC[C@H](c1ccc2ccccc2c1)[C@H](OCc1cccc(=O)n1C)c1ccccc1 [Compound 79] | 9.7
CNC[C@@H](c1ccc2ccccc2c1)[C@@H](O)c1ccccc1F [Compound 78] | 9.7
CNCC(CCc1ccccc1)[C@@H](O)c1ccccc1 (some centres unmarked) [Compound 147] | 10.1
CNC[C@H](c1ccc2ccccc2c1)[C@H](F)c1ccccc1 [Compound 9] | 9.4
CNC[C@H](c1ccc(Cl)c(Cl)c1)[C@@H](O)c1ccccc1S(C)(=O)=O [Compound 170] | 9.3
CNCC(Cc1ccccc1F)c1ccc2ccccc2c1 (racemic) [Compound 36] | 10
CNC[C@H](c1ccc(Cl)cc1)[C@H](O)c1ccccc1 (racemic) [Compound 148] | 9.7
CN(C)C[C@H](c1ccc2ccccc2c1)[C@H](O)c1ccccc1 [Compound 83] | 9
CNC[C@@H](c1ccc2ccccc2c1)[C@H](O)c1ccccc1F [Compound 96] | 9.7
CNC[C@H](c1ccc2ccccc2c1)[C@H](O)c1cncc(OC)c1 [Compound 92] | 9.6
CNC[C@H](c1ccc(Cl)c(Cl)c1)[C@@H](O)c1ccccc1 [Compound 70] | 9.4
CNCC(c1ccc2ccccc2c1)C(OC)c1ccccc1 (centres unmarked) [Compound 38] | 9.7
CNC[C@@H](Cc1ccc(C)s1)c1ccc2ccccc2c1 [Compound 44] | 10
CN(C)C[C@H](c1ccc2ccccc2c1)[C@H](N)c1ccccc1 [Compound 82] | 9
CNC[C@@H](c1ccc(Cl)c(Cl)c1)[C@@H](O)c1cccc(N2CCOCC2)c1 [Compound 125] | 9.4
CNC[C@H](Cc1cccnc1)c1ccc(Cl)c(Cl)c1 [Compound 115] | 9.6
CNCC(Cc1ccccc1CO)c1ccc2ccccc2c1 (centres unmarked) [Compound 90] | 10
CNC[C@@H](c1ccc(Cl)c(Cl)c1)[C@@H](O)c1cccc(SC)c1 [Compound 120] | 9.4
CNC[C@H](c1ccc(Cl)c(Cl)c1)[C@H](O)c1cccc(S(C)(=O)=O)c1 [Compound 101] | 9.3
CNC[C@@H](c1ccc(Cl)c(Cl)c1)[C@@H](O)c1ccccc1 [Compound 114] | 9.4
CNC[C@H](c1ccc2ccccc2c1)[C@@H](O)c1ccncc1Cl [Compound 7] | 9.5
CNC[C@H](c1ccc2ccccc2c1)[C@H](OCC(=O)N1CC[C@H](O)C1)c1ccccc1 [Compound 19] | 9.6
CNC[C@H](c1ccc(Cl)c(Cl)c1)[C@H](O)c1cccc(N(C)C)c1 (single isomer, unassigned) [Compound 168] | 9.5
CNC[C@@H](c1ccc(Cl)c(Cl)c1)[C@@H](O)c1cccc([S+](C)[O-])c1 (single isomer, unassigned) [Compound 116] | 9.4
